system-name: ST3N (Rattus norvegicus, UniProt Q02734)
Sequence (Q02734 29-374 limits assumed): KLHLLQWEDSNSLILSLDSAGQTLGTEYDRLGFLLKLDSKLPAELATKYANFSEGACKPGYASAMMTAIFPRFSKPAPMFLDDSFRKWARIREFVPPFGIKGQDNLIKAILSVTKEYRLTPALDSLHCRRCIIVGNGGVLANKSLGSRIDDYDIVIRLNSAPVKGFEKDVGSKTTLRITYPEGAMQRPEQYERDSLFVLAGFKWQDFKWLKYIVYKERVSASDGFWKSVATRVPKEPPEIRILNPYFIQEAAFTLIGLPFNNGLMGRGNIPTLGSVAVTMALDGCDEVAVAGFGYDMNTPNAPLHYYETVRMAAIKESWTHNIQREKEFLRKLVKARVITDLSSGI
protocol-notes: Acceptor specificity of ST3N (Table 4)
measurement-context: acceptor 0.2 mM
What Relative rate (%) ST3N was measured for each of the following?
Please state the figure in %; there is no need to write the unit.

Relative rate (%) ST3N in this record for CC(=O)N[C@H]1C(O)O[C@H](CO)[C@@H](O)[C@@H]1O[C@@H]1O[C@H](CO)[C@H](O)[C@H](O)[C@H]1O (stereo partly drawn) [Galβ1,3GlcNAc] : 49

Summary for this compound, CC(=O)N[C@H]1[C@H](O[C@H]2[C@@H](O)[C@@H](CO)O[C@@H](O[C@H]3[C@H](O)[C@@H](O)C(O)O[C@@H]3CO)[C@@H]2O)O[C@H](CO)[C@@H](O[C@@H]2O[C@H](CO)[C@H](O)[C@H](O)[C@H]2O)[C@@H]1O (stereo partly drawn) [Galβ1,4GlcNAcβ1,3Galβ1,4Glc (LNnT), Galβ1,4GlcNAcβ1,3Galβ1,4Glc] : Relative rate (%) ST3N is 4

Form: compound = CC(=O)N[C@H]1C(O)O[C@H](CO)[C@@H](O[C@@H]2O[C@H](CO)[C@H](O)[C@H](O)[C@H]2O)[C@@H]1O (stereo partly drawn) [Galβ1,4GlcNAc] ; Relative rate (%) ST3N = 19

* * *

system-name: UniProtKB Q02745
Sequence (Q02745 28-343 limits assumed): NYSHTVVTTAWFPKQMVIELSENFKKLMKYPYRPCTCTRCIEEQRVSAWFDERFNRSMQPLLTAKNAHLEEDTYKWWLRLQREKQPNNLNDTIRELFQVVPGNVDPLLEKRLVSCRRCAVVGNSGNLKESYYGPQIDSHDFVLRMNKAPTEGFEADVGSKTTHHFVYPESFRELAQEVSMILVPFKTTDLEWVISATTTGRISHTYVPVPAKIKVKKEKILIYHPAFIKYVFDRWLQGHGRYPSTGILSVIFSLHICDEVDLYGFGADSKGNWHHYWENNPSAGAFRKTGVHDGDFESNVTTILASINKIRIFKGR
protocol-notes: Acceptor specificity of ST3O (Table 4)
measurement-context: acceptor 0.2 mM
recorded-metric: Relative rate (%) ST30
Your answer should be a plain number; it is taken to be in %.

Relative rate (%) ST30 measured on CC(=O)N[C@H]1C(O)O[C@H](CO)[C@@H](O[C@@H]2O[C@H](CO)[C@H](O)[C@H](O)[C@H]2O)[C@@H]1O (stereo partly drawn) [Galβ1,4GlcNAc] = 0

CC(=O)N[C@H]1C(O)O[C@H](CO)[C@H](O)[C@@H]1O[C@@H]1O[C@H](CO)[C@H](O)[C@H](O)[C@H]1O (stereo partly drawn) [Galβ1,3GalNAc] has a reported Relative rate (%) ST30 of 100

Memo: CC(=O)N[C@H]1[C@H](O[C@H]2[C@@H](O)[C@@H](CO)O[C@@H](O[C@H]3[C@H](O)[C@@H](O)C(O)O[C@@H]3CO)[C@@H]2O)O[C@H](CO)[C@@H](O[C@@H]2O[C@H](CO)[C@H](O)[C@H](O)[C@H]2O)[C@@H]1O (stereo partly drawn) [Galβ1,4GlcNAcβ1,3Galβ1,4Glc (LNnT), Galβ1,4GlcNAcβ1,3Galβ1,4Glc] , reported Relative rate (%) ST30: 0

Looking up CC(=O)N[C@H]1[C@H](O[C@H]2[C@@H](O)[C@@H](CO)O[C@@H](O[C@H]3[C@H](O)[C@@H](O)C(O)O[C@@H]3CO)[C@@H]2O)O[C@H](CO)[C@@H](O[C@@H]2O[C@H](CO)[C@H](O)[C@H](O)[C@H]2O)[C@@H]1O[C@@H]1O[C@@H](C)[C@@H](O)[C@@H](O)[C@@H]1O (stereo partly drawn) [Galβ1,4(Fucα1,3)GlcNAcβ1,3Galβ1,4Glc] , I found its Relative rate (%) ST30 recorded as 0

Relative rate (%) ST30 for CC(=O)N[C@H]1[C@H](O[C@H]2[C@@H](O)[C@@H](CO)O[C@@H](O[C@H]3[C@H](O)[C@@H](O)C(O)O[C@@H]3CO)[C@@H]2O)O[C@H](CO)[C@@H](O)[C@@H]1O[C@@H]1O[C@H](CO)[C@H](O)[C@H](O)[C@H]1O (stereo partly drawn) [Galβ1,3GlcNAcβ1,3Galβ1,4Glc (LNT), Galβ1,3GlcNAcβ1,3Galβ1,4Glc] is 0.5

Reported Relative rate (%) ST30 ( CC(=O)N[C@H]1C(O)O[C@H](CO)[C@@H](O)[C@@H]1O[C@@H]1O[C@H](CO)[C@H](O)[C@H](O)[C@H]1O (stereo partly drawn) [Galβ1,3GlcNAc] ) = 2

* * *

system-name: UniProt Q02734
protocol-notes: Acceptor specificity of ST3N (Table 4)
measurement-context: acceptor 2.0 mM
Answer each item with its documented Relative rate (%) ST3N.
Answer with a number only, understood to be in %.

Looking up CC(=O)N[C@H]1C(O)O[C@H](CO)[C@H](O)[C@@H]1O[C@@H]1O[C@H](CO)[C@H](O)[C@H](O)[C@H]1O (stereo partly drawn) , I found its Relative rate (%) ST3N recorded as 10

CC(=O)N[C@H]1[C@H](O[C@H]2[C@@H](O)[C@@H](CO)O[C@@H](O[C@H]3[C@H](O)[C@@H](O)C(O)O[C@@H]3CO)[C@@H]2O)O[C@H](CO)[C@@H](O[C@@H]2O[C@H](CO)[C@H](O)[C@H](O)[C@H]2O)[C@@H]1O[C@@H]1O[C@@H](C)[C@@H](O)[C@@H](O)[C@@H]1O (stereo partly drawn) has a reported Relative rate (%) ST3N of 0

Looking up CC(=O)N[C@H]1[C@H](O[C@H]2[C@@H](O)[C@@H](CO)O[C@@H](O[C@H]3[C@H](O)[C@@H](O)C(O)O[C@@H]3CO)[C@@H]2O)O[C@H](CO)[C@@H](O)[C@@H]1O[C@@H]1O[C@H](CO)[C@H](O)[C@H](O)[C@H]1O (stereo partly drawn) , I found its Relative rate (%) ST3N recorded as 100

Consider CC(=O)N[C@H]1[C@H](O[C@H]2[C@@H](O)[C@@H](CO)O[C@@H](O[C@H]3[C@H](O)[C@@H](O)C(O)O[C@@H]3CO)[C@@H]2O)O[C@H](CO)[C@@H](O[C@@H]2O[C@@H](C)[C@@H](O)[C@@H](O)[C@@H]2O)[C@@H]1O[C@@H]1O[C@H](CO)[C@H](O)[C@H](O)[C@H]1O (stereo partly drawn) . Its measured Relative rate (%) ST3N is 0

Relative rate (%) ST3N reading for CC(=O)N[C@H]1[C@H](O[C@H]2[C@@H](O)[C@@H](CO)O[C@@H](O[C@H]3[C@H](O)[C@@H](O)C(O)O[C@@H]3CO)[C@@H]2O)O[C@H](CO)[C@@H](O[C@@H]2O[C@H](CO)[C@H](O)[C@H](O)[C@H]2O)[C@@H]1O (stereo partly drawn) : 18

Summary for this molecule, CC(=O)N[C@H]1C(O)O[C@H](CO)[C@@H](O[C@@H]2O[C@H](CO)[C@H](O)[C@H](O)[C@H]2O)[C@@H]1O (stereo partly drawn) : Relative rate (%) ST3N is 46

Entry source: patent US5962294A
